# experimentDescription: self-splicing fitness, log relative to wild type (ln ratio); higher = more splicing; Tetrahymena group I intron in knt gene, E. coli kanamycin selection, DiMSum; sequences stand for … in CUCUCU…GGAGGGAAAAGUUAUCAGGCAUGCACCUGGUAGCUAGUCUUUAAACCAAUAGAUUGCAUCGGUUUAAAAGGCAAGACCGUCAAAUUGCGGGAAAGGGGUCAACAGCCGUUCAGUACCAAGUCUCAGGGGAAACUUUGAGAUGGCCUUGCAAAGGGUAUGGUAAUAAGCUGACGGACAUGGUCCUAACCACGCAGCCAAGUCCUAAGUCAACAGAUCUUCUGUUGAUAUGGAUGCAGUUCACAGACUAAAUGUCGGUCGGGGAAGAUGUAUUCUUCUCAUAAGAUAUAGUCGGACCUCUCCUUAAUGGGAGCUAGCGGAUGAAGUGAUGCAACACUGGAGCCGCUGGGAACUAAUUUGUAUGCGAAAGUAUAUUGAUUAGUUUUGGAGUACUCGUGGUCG;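 further: selection with 25 µg/mL kanamycin versus none on LB agar overnight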
# measurementSetup: 30 °C
propertyMeasured: self-splicing fitness (ln)

entrySequence: ACGGAGCAAUAUUACGAGUC
reportedResult: -3.83

entrySequence: AACUAGCAAUAUUACGUACC
reportedResult: -1.14

entrySequence: GGUGAGCAAUAUUACGUUUU
reportedResult: -2.94

entrySequence: CGAGAGCAAUAUUACGGGCU
reportedResult: -3.67

entrySequence: AAUUAGCAAUAUUACGACCU
reportedResult: 0.197

entrySequence: GGUCAGCAAUAUUACGCAGU
reportedResult: -1.33

entrySequence: AGAAAGCAAUAUUACGCAGG
reportedResult: -2.89

entrySequence: CCUCAGCAAUAUUACGUUGG
reportedResult: -3.17

---

# experimentDescription: self-splicing fitness, log relative to wild type (ln ratio); higher = more splicing; Tetrahymena group I intron in knt gene, E. coli kanamycin selection, DiMSum; sequences stand for … in CUCUCU…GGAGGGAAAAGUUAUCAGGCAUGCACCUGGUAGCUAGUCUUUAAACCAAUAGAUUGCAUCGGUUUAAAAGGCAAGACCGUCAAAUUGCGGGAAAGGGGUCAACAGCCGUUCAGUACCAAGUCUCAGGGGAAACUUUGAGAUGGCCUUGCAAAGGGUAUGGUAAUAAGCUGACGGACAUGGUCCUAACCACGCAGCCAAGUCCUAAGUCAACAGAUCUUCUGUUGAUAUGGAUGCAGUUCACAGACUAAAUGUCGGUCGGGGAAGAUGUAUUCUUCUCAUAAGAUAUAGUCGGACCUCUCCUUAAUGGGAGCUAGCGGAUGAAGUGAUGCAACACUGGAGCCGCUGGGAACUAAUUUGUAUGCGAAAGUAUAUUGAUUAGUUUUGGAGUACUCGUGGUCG
# measurementSetup: 30 °C
Please mark yes (1) if the recorded self-splicing fitness (ln) is equal to or greater than -2, and no (0) if it falls below.

entrySequence: GUCUAGCAAUAUUACGAGGG
classAssignment: no (0)
--
entrySequence: AGAAAGCAAUAUUACGAACA
classAssignment: yes (1)
--
entrySequence: AAAAAGCAAUAUUACGUAUU
classAssignment: yes (1)
--
entrySequence: UAAUAGCAAUAUUACGAGCU
classAssignment: no (0)
--
entrySequence: UCUGAGCAAUAUUACGUCUU
classAssignment: no (0)
--
entrySequence: CCUUAGCAAUAUUACGAGCU
classAssignment: no (0)
--
entrySequence: UCCAAGCAAUAUUACGUAGU
classAssignment: yes (1)

---

# experimentDescription: self-splicing fitness, log relative to wild type (ln ratio); higher = more splicing; Tetrahymena group I intron in knt gene, E. coli kanamycin selection, DiMSum; sequences stand for … in CUCUCU…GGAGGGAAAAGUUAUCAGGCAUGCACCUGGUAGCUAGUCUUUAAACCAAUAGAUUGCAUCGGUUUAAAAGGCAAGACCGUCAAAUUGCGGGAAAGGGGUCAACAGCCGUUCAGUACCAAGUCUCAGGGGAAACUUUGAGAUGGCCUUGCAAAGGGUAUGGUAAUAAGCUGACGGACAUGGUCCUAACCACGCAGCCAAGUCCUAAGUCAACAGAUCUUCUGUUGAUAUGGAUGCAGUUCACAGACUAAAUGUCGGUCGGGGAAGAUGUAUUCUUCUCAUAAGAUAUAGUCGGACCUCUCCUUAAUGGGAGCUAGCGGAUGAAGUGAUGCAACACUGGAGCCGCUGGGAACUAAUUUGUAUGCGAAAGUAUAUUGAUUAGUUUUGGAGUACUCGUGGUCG
# measurementSetup: 30 °C
// thresholds for self-splicing fitness (ln) classes: low-valued = under -3, mid-valued = from -3 up to -2, high-valued = -2 and over

entrySequence: AACGAGCAAUAUUACGGUUA
classAssignment: high-valued
//
entrySequence: GGCCAGCAAUAUUACGGCGC
classAssignment: high-valued
//
entrySequence: AACAAGCAAUAUUACGUUAG
classAssignment: low-valued
//
entrySequence: CCAAAGCAAUAUUACGGAUC
classAssignment: low-valued
//
entrySequence: AUAUAGCAAUAUUACGUCCU
classAssignment: high-valued
//
entrySequence: UCGAAGCAAUAUUACGUACU
classAssignment: mid-valued
//
entrySequence: CGAAAGCAAUAUUACGGUGA
classAssignment: high-valued
//
entrySequence: GGCAAGCAAUAUUACGAAGG
classAssignment: low-valued
//
entrySequence: GUUCAGCAAUAUUACGCCGA
classAssignment: mid-valued
//
entrySequence: ACAAAGCAAUAUUACGUGAU
classAssignment: high-valued
//
entrySequence: GGGUAGCAAUAUUACGUGAA
classAssignment: high-valued
//
entrySequence: GAAAAGCAAUAUUACGCACC
classAssignment: high-valued
//
entrySequence: CCGAAGCAAUAUUACGUAUU
classAssignment: low-valued
//
entrySequence: AGGCAGCAAUAUUACGGCUU
classAssignment: mid-valued
//
entrySequence: CAAGAGCAAUAUUACGCGCU
classAssignment: low-valued
//
entrySequence: ACAAAGCAAUAUUACGCGUC
classAssignment: low-valued
//
entrySequence: GGCGAGCAAUAUUACGAUUG
classAssignment: mid-valued
//
entrySequence: CACAAGCAAUAUUACGCCUA
classAssignment: high-valued
//
entrySequence: AGCCAGCAAUAUUACGUGCA
classAssignment: high-valued
//
entrySequence: GCUUAGCAAUAUUACGACCA
classAssignment: high-valued
//
entrySequence: GGCAAGCAAUAUUACGACAG
classAssignment: low-valued
//
entrySequence: AAUUAGCAAUAUUACGCGUA
classAssignment: high-valued
//
entrySequence: GACUAGCAAUAUUACGUUCG
classAssignment: low-valued
//
entrySequence: CGUCAGCAAUAUUACGUGUA
classAssignment: low-valued
//
entrySequence: AAAUAGCAAUAUUACGAUAG
classAssignment: low-valued
//
entrySequence: GUUCAGCAAUAUUACGUACA
classAssignment: high-valued
//
entrySequence: AAAGAGCAAUAUUACGCGUC
classAssignment: mid-valued
//
entrySequence: AUUGAGCAAUAUUACGGGAA
classAssignment: low-valued
//
entrySequence: CAAUAGCAAUAUUACGAUCU
classAssignment: low-valued
//
entrySequence: GGCCAGCAAUAUUACGUAGC
classAssignment: mid-valued

---

Recorded self-splicing fitness (ln) for the following sequences
# experimentDescription: self-splicing fitness, log relative to wild type (ln ratio); higher = more splicing; Tetrahymena group I intron in knt gene, E. coli kanamycin selection, DiMSum; sequences stand for … in CUCUCU…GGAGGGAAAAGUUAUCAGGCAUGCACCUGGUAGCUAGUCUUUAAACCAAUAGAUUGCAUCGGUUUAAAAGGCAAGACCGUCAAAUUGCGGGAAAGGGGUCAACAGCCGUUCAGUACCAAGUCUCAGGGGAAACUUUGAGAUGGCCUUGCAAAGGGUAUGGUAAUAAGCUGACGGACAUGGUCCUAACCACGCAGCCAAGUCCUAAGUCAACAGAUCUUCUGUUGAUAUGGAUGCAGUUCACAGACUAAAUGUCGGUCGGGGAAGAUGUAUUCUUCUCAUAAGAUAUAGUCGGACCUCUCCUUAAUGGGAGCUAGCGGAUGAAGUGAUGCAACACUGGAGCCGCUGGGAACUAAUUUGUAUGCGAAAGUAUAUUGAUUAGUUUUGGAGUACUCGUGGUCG
# measurementSetup: 37 °C
propertyMeasured: self-splicing fitness (ln)

entrySequence: GGACAGCAAUAUUACGUACU
reportedResult: -0.317

entrySequence: UAGUAGCAAUAUUACGCCCG
reportedResult: 0.255

entrySequence: GCCAAGCAAUAUUACGUCUU
reportedResult: -2.38

entrySequence: GAAAAGCAAUAUUACGGUGG
reportedResult: -1.66

entrySequence: UGGCAGCAAUAUUACGAACU
reportedResult: -0.471

entrySequence: GCUGAGCAAUAUUACGGUUU
reportedResult: -1.25

entrySequence: UACAAGCAAUAUUACGGAAA
reportedResult: -1.99

entrySequence: GUCAAGCAAUAUUACGAAGC
reportedResult: -2.54

entrySequence: CGCCAGCAAUAUUACGUCGA
reportedResult: -1.24

entrySequence: GCCUAGCAAUAUUACGGAUA
reportedResult: -0.705

entrySequence: GAAGAGCAAUAUUACGACGU
reportedResult: -0.536

entrySequence: GAAAAGCAAUAUUACGUCGG
reportedResult: -2.89

entrySequence: GACUAGCAAUAUUACGUUAA
reportedResult: -0.716

entrySequence: CAGAAGCAAUAUUACGAAUA
reportedResult: -1.84

entrySequence: CGUAAGCAAUAUUACGGCAC
reportedResult: -0.595

entrySequence: UUACAGCAAUAUUACGAAGU
reportedResult: -2.7
